All values here come from ChEMBL document CHEMBL4732262.

tested on: MCF7; test: Cytotoxicity against human MCF7 cells assessed as reduction in cell viability after 24 hrs by MTT assay; format: functional, cell-based; conditions: MCF7, 24 h
ATTRIBUTE_MEASURED: IC50 (µM)
Respond numerically; units are µM and should not be typed.

Cc1coc2c1C(=O)C(=O)c1c-2ccc2c1CCCC2(C)C
7.79
O=C1C(=O)c2c(ccc3ccccc23)-c2ccoc21
14.4

// query What IC50 value was documented for this molecule, `Cc1coc2c1C(=O)C(=O)c1c-2ccc2c(C)cccc12` ?
// result 7.93

// query What IC50 value was documented for this molecule, `COc1ccc2ccc3c(c2c1)-c1ccsc1C(=O)C3=O` ?
// result 8.02

// query What IC50 value was documented for this molecule, `O=C1C(=O)c2ccsc2-c2ccccc21` ?
// result 1.95

// query What IC50 value was documented for this molecule, `O=C1C(=O)c2occc2-c2c1ccc1ccccc21` ?
// result 15.8

// query What IC50 value was documented for this molecule, `O=C1C(=O)c2sccc2-c2ccccc21` ?
// result 1.86

// query What IC50 value was documented for this molecule, `O=C1C(=O)c2ccc3ccccc3c2-c2sccc21` ?
// result 12.8

// query What IC50 value was documented for this molecule, `Cc1cc2c3c(ccc2s1)C(=O)C(=O)c1sccc1-3` ?
// result 14.6

// query What IC50 value was documented for this molecule, `Cc1cc2c3c(ccc2s1)C(=O)C(=O)c1ccsc1-3` ?
// result 17.5
